# ASSAY OVERVIEW: in vitro
# MEASUREMENT CONTEXT: human, plasma
EXPERIMENTAL ENDPOINT: fraction unbound at 10 µM
The response must contain the number and no unit.

What measured fraction unbound at 10 µM goes with CCC(CC)c1cc(N[C@H]2CC[C@H](N)C2)n2nccc2n1 [ISTISOCICLIB] ?
0.62

====

# ASSAY OVERVIEW: in vitro
# MEASUREMENT CONTEXT: dog, liver microsomes
EXPERIMENTAL ENDPOINT: remaining at 3 h (%)
Dear colleague, please return just the value in %, with no unit written.

What value of remaining at 3 h has been reported for the following compound? CCC(CC)c1cc(N[C@H]2CC[C@H](N)C2)n2nccc2n1
68.8
